Details: human gut metagenome, 24 h, 2 µM; also: call rule not given here
measurement.kind: Bacterial Biotransformation

>>> result("COC1=C(OC)C(=O)C(CCCCCCCCCCO)=C(C)C1=O")
"Compound metabolized"
>>> result("COc1ccc2cc([C@H](C)C(=O)O)ccc2c1")
"Compound NOT metabolized"
>>> result("Br.CN1CCC[C@@H]1Cc1c[nH]c2ccc(CCS(=O)(=O)c3ccccc3)cc12 [ELETRIPTAN HYDROBROMIDE]")
"Compound NOT metabolized"
>>> result("O=C(O)c1cc(/N=N/c2ccc(S(=O)(=O)Nc3ccccn3)cc2)ccc1O")
"Compound metabolized"
>>> result("CC(C)c1c(CN(C)C(C)Cc2ccccc2)n(C)n(-c2ccccc2)c1=O (stereo unspecified)")
"Compound metabolized"
>>> result("C#C[C@]1(OC(C)=O)CC[C@H]2[C@@H]3CCC4=CC(=O)CC[C@@H]4[C@H]3CC[C@@]21C [NORETHINDRONE ACETATE]")
"Compound metabolized"
>>> result("CCOc1ccccc1OCCN[C@H](C)Cc1ccc(OC)c(S(N)(=O)=O)c1.Cl [TAMSULOSIN HYDROCHLORIDE]")
"Compound NOT metabolized"
>>> result("C[C@]12C=CC(=O)C=C1CC[C@@H]1[C@@H]2C(=O)C[C@@]2(C)[C@H]1CC[C@]2(O)C(=O)CO")
"Compound metabolized"
>>> result("CN(C)CCC=C1c2ccccc2COc2ccccc21 [DOXEPIN]")
"Compound NOT metabolized"
>>> result("COc1ccc(C(CN(C)C)C2(O)CCCCC2)cc1 (stereo unspecified)")
"Compound NOT metabolized"
>>> result("CC(C)C[C@H]1C(=O)N2CCC[C@H]2[C@]2(O)O[C@](NC(=O)[C@@H]3C=C4c5cccc6[nH]c(Br)c(c56)C[C@H]4N(C)C3)(C(C)C)C(=O)N12.CS(=O)(=O)O [BROMOCRIPTINE MESYLATE]")
"Compound NOT metabolized"
